The entries below are paired with their reported melting point.
Give the value in °C but do not write °C after it.

c1ccc2nncnc2c1 ... 75.8

Exercise: Indicate its recorded melting point; the compound in question is `O=[N+]([O-])N1CCCCC1`
Solution: -5.5

Exercise: Indicate its recorded melting point; the compound in question is `N#CCCCOc1ccccc1`
Solution: 45.5

Exercise: Indicate its recorded melting point; the compound in question is `CC1CCC1`
Solution: -162

Exercise: Indicate its recorded melting point; the compound in question is `CC(C)Nc1ccc(Nc2ccccc2)cc1`
Solution: 74

Exercise: Indicate its recorded melting point; the compound in question is CCN(CC)C(=O)Nc1ccc(OCC(O)CNC(C)(C)C)c(C(C)=O)c1 (stereo not given)
Solution: 111

Exercise: Indicate its recorded melting point; the compound in question is `CC(C)[C@@H](Br)C(=O)O`
Solution: 44

Exercise: Indicate its recorded melting point; the compound in question is `FC(F)(F)C(F)(F)C(F)(F)C(F)(F)C(F)(F)C(F)(F)F`
Solution: -87.1

Exercise: Indicate its recorded melting point; the compound in question is `O=c1[nH]cc(F)c(=O)[nH]1`
Solution: 283

====

assay.setup: fish
The entries below are paired with their reported log10 BCF.
No unit in the answer, only the number.

CC(CC(C)(C)C)CC(C)(C)CC(C)(C)C (centres undefined) ... 3.82

Exercise: Indicate its recorded log10 BCF; the compound in question is CCCCC(CC)COC(=O)c1ccc(C(=O)OCC(CC)CCCC)c(C(=O)OCC(CC)CCCC)c1 (centres undefined)
Solution: 1.17

Exercise: Indicate its recorded log10 BCF; the compound in question is CCC(C)n1c(=O)[nH]c(C)c(Br)c1=O (centres undefined)
Solution: 0.51

Exercise: Indicate its recorded log10 BCF; the compound in question is ClC1=C(Cl)C2(Cl)C3C(Cl)C(Cl)CC3C1(Cl)C2(Cl)Cl (centres undefined)
Solution: 4.35

Exercise: Indicate its recorded log10 BCF; the compound in question is `O=C(O)c1ccc2cc(C(=O)O)ccc2c1`
Solution: 0.81

Exercise: Indicate its recorded log10 BCF; the compound in question is `C=CCCCCCCC`
Solution: 3.17

Exercise: Indicate its recorded log10 BCF; the compound in question is `Nc1ccc([N+](=O)[O-])cc1`
Solution: 0.6

Exercise: Indicate its recorded log10 BCF; the compound in question is `O=P(OC(CCl)CCl)(OC(CCl)CCl)OC(CCl)CCl`
Solution: 1.08

Exercise: Indicate its recorded log10 BCF; the compound in question is Cl[C@H]1[C@H](Cl)[C@@H](Cl)[C@@H](Cl)[C@H](Cl)[C@H]1Cl (racemic)
Solution: 3.04

Exercise: Indicate its recorded log10 BCF; the compound in question is `Clc1ccc(Cl)c(-c2ccc(Cl)c(Cl)c2)c1`
Solution: 5.08

Exercise: Indicate its recorded log10 BCF; the compound in question is `ClC1CCCCC1`
Solution: 2.34

Exercise: Indicate its recorded log10 BCF; the compound in question is ClC(COCC(Cl)C(Cl)(Cl)Cl)C(Cl)(Cl)Cl (centres undefined)
Solution: 3.28

Exercise: Indicate its recorded log10 BCF; the compound in question is CCOP(=S)(Oc1ccc([N+](=O)[O-])cc1)c1ccccc1 (centres undefined)
Solution: 2.97

Exercise: Indicate its recorded log10 BCF; the compound in question is `C1COCCN1`
Solution: 0.45

Exercise: Indicate its recorded log10 BCF; the compound in question is `CC(C)(C)c1cc(C(C)(C)C)cc(C(C)(C)C)c1`
Solution: 4.36

Exercise: Indicate its recorded log10 BCF; the compound in question is `C1=Cc2cccc3cccc1c23`
Solution: 2.43

Exercise: Indicate its recorded log10 BCF; the compound in question is `Cc1cccc(C)c1C`
Solution: 2.29

====

Quick rule: melting point of at least 100 °C means YES, below that means NO.

C=Cc1ccccc1OC ... NO
C#C[C@]1(O)CC[C@H]2[C@@H]3CCc4cc(OC)ccc4[C@H]3CC[C@@]21C ... YES
CC(=O)OCC(=O)[C@@]1(O)[C@@H](C)C[C@H]2[C@@H]3CCC4=CC(=O)C=C[C@]4(C)[C@@]3(F)[C@@H](O)C[C@@]21C ... YES

Exercise: melting point >= 100 °C for C=C[C@H]1C[N@@]2CC[C@H]1C[C@H]2C12Nc3ccccc3C1(O)CCO2 (stereo partly drawn) ?
Solution: YES

====

The entries below are paired with their reported boiling point.
Give the value in °C but do not write °C after it.

CCc1ccccc1[N+](=O)[O-] ... 232
COC(C)CO (stereo not drawn) ... 130
CCC(O)C(C)O (stereo not drawn) ... 188
C=CC(CC)CC ... 84.1
CC(C)=CCCC(C)CCO (racemic) ... 224

Exercise: Indicate its recorded boiling point; the compound in question is `Nc1ccc(Oc2ccc(N)cc2)cc1`
Solution: 350

Exercise: Indicate its recorded boiling point; the compound in question is `Cc1cc(N)c2ccccc2n1`
Solution: 333

Exercise: Indicate its recorded boiling point; the compound in question is `C=Cc1ccc(Cl)cc1`
Solution: 192

Exercise: Indicate its recorded boiling point; the compound in question is `Cc1ccc2ccc3ccccc3c2c1`
Solution: 350

Exercise: Indicate its recorded boiling point; the compound in question is `Cc1ccc(CN)cc1`
Solution: 195

Exercise: Indicate its recorded boiling point; the compound in question is `Brc1ccc(Sc2ccc(Br)cc2)cc1`
Solution: 268

Exercise: Indicate its recorded boiling point; the compound in question is `CCCCCl`
Solution: 78.6

Exercise: Indicate its recorded boiling point; the compound in question is `CC[C@H]1CCCC[C@H]1C`
Solution: 154

Exercise: Indicate its recorded boiling point; the compound in question is `c1ccc(CN2CCCCC2)cc1`
Solution: 245

Exercise: Indicate its recorded boiling point; the compound in question is `O=c1cccco1`
Solution: 208

====

The entries below are paired with their reported melting point.
Answer shape: numeric part, then the unit.

These solved cases illustrate the format of a correct answer.
Oc1ccc(Cl)cc1Cc1cc(Cl)ccc1O ... 178 °C
O=[N+]([O-])c1c(Cl)cccc1Cl ... 72.5 °C
CC(=O)OCC(=O)[C@@]12OC(C)(C)O[C@@H]1C[C@H]1[C@@H]3C[C@H](F)C4=CC(=O)C=C[C@]4(C)[C@@]3(F)[C@@H](O)C[C@@]12C ... 309 °C
CC(=O)Oc1cc(C(F)(F)F)ccc1C(=O)O ... 121 °C
C#CC(C)(C)N ... 18 °C
c1ccc(CC2CCCCN2)cc1 (configuration not stated) ... 32 °C

# context switch: different molecule, same melting point
Exercise: Indicate its recorded melting point; the molecule in question is `CC#N`
Solution: -43.8 °C

====

The entries below are paired with their reported melting point.
Give the value in °C but do not write °C after it.

These solved cases illustrate the format of a correct answer.
CCOP(=S)(S)OCC ... -10
O=P(O)(O)CP(=O)(O)O ... 200
CC(C)C1(Cc2ccco2)C(=O)NC(=O)NC1=O ... 169
CC(C)(C)C1CCCCC1O (stereo not given) ... 45
CC(=O)[C@H]1CC[C@H]2[C@@H]3CC[C@@H]4CC(=O)CC[C@]4(C)[C@H]3CC[C@]12C ... 123
CC(C)C(C)(C)C(C)C ... -102

Exercise: Indicate its recorded melting point; the molecule in question is `CC1=CC(=O)O[C@@]2(C1)C[C@H]1CC[C@@H]2CN1C`
Solution: 54.5

Exercise: Indicate its recorded melting point; the molecule in question is `CC(C)OC(=O)C(C(=O)OC(C)C)=C1SCCS1`
Solution: 54

Exercise: Indicate its recorded melting point; the molecule in question is `C[C@H](CCC(=O)O)[C@H]1CC[C@H]2[C@@H]3[C@H](O)C[C@@H]4C[C@H](O)CC[C@]4(C)[C@H]3C[C@H](O)[C@]12C`
Solution: 198

====

The entries below are paired with their reported melting point.
Give the value in °C but do not write °C after it.

These solved cases illustrate the format of a correct answer.
CC(C)CC(=O)C=Cc1ccccc1 ... 43
CCOc1ccc2nc(S(N)(=O)=O)sc2c1 ... 189
c1ccc(Cc2cccc3ccccc23)cc1 ... 59.5
C[C@]12CCC(=O)C[C@@H]1CC[C@@H]1[C@@H]2CC[C@@]2(C)[C@H]1CC[C@]2(C)O ... 192

Exercise: Indicate its recorded melting point; the compound in question is `Nc1cccnc1`
Solution: 64.5

Exercise: Indicate its recorded melting point; the compound in question is `c1ccc2cc3c(ccc4cc5ccccc5cc43)cc2c1`
Solution: 257

Exercise: Indicate its recorded melting point; the compound in question is `C[N+](C)(C)CCOC(=O)CCC(=O)OCC[N+](C)(C)C.[Cl-].[Cl-]`
Solution: 190

Exercise: Indicate its recorded melting point; the compound in question is `Nc1ccc2cc3ccc(N)cc3nc2c1`
Solution: 285

Exercise: Indicate its recorded melting point; the compound in question is `CCN(CC)C(=O)[C@@H]1C=C2c3cccc4[nH]cc(c34)C[C@H]2N(C)C1`
Solution: 82.5

Exercise: Indicate its recorded melting point; the compound in question is `Cc1cc(C(C)(C)c2ccc(O)c(C)c2)ccc1O`
Solution: 139
